# TGI listing for each entry below
Test system: HOP-62 NSCLC
MEASUREMENT_PROTOCOL: NCI tumour cell line growth inhibition, 48 h
MEASURE: TGI

compound=CCOC(=O)c1cc(C#N)[nH]c1-c1ccsc1 target_or_system="HOP-62 NSCLC" measure=TGI reported_result="> 100 µM"
compound=O=C(NCCCCCCNC(=O)OCc1ccc2c(Cl)cc(Cl)c(O)c2n1)OCc1ccc2c(Cl)cc(Cl)c(O)c2n1 target_or_system="HOP-62 NSCLC" measure=TGI reported_result="4.22 µM"
compound="Cc1ccc(C2=NN(c3ccc(S(N)(=O)=O)cc3)C(c3cn(-c4ccccc4)nc3-c3ccccc3)C2)cc1 (stereo unspecified)" target_or_system="HOP-62 NSCLC" measure=TGI reported_result="> 100 µM"
compound=C[CH2][Sn]([CH2]C)([O]C(=O)c1ccc(F)cc1)[O][Sn]([CH2]C)([CH2]C)[O]C(=O)c1ccc(F)cc1 target_or_system="HOP-62 NSCLC" measure=TGI reported_result="> 100 µM"
compound=Nc1nc(-c2ccc(Cl)cc2)cc(-c2ccccc2)c1-c1nc2ccccc2o1 target_or_system="HOP-62 NSCLC" measure=TGI reported_result="7.47 µM"
compound="CSC1(CC(=O)N2CCCCC2)C(=O)Nc2ccccc21 (stereo unspecified)" target_or_system="HOP-62 NSCLC" measure=TGI reported_result="> 100 µM"
compound="COc1ccc(C(c2ccc3c(c2)OCO3)N2C(=O)CCC2C(=O)O)cc1 (stereo unspecified)" target_or_system="HOP-62 NSCLC" measure=TGI reported_result="> 100 µM"
compound=Cc1nn(C)c2cc(N(C)c3ccnc(Nc4cccc(S(N)(=O)=O)c4)n3)ccc12 target_or_system="HOP-62 NSCLC" measure=TGI reported_result="> 25 µM"
compound=COc1ccc(C)cc1Nc1nnc(-c2ccc(N)cc2)s1 target_or_system="HOP-62 NSCLC" measure=TGI reported_result="> 100 µM"
compound=Cc1cc2nc(C(Cl)Cl)nc(-c3ccccc3)n2n1 target_or_system="HOP-62 NSCLC" measure=TGI reported_result="8.64 µM"
compound=Cc1ccccc1NC(=O)c1ccc([N+](=O)[O-])cc1 target_or_system="HOP-62 NSCLC" measure=TGI reported_result="> 100 µM"

Hey, just so you know, these numbers are from PubChem BioAssay (NCI).
